assay: Plasma compound exposure in rats (tail bleed, day 6); format: in vivo; settings: rat, 30 mg/kg po qd
Recorded metric: Cmax (µM)
Just the number please, in µM, no unit attached.

Query :: Value lookup for Cmax; key = CC#CC(=O)N1CCC2(CC(n3nc(-c4ccc(OC(C)C)cc4)c(C(N)=O)c3N)C2)C1 (stereo not shown) [Compound B]
Result :: 0.48

* * *

Each entry below lists one item and its recorded IC50 value.
biological target: human recombinant full length TEC (His-tagged) (Homo sapiens (Human), UniProt P42680); test: TEC Lanthscreen Eu Kinase Binding assay; settings: 1 nM TEC
Sequence (P42680 whole entry): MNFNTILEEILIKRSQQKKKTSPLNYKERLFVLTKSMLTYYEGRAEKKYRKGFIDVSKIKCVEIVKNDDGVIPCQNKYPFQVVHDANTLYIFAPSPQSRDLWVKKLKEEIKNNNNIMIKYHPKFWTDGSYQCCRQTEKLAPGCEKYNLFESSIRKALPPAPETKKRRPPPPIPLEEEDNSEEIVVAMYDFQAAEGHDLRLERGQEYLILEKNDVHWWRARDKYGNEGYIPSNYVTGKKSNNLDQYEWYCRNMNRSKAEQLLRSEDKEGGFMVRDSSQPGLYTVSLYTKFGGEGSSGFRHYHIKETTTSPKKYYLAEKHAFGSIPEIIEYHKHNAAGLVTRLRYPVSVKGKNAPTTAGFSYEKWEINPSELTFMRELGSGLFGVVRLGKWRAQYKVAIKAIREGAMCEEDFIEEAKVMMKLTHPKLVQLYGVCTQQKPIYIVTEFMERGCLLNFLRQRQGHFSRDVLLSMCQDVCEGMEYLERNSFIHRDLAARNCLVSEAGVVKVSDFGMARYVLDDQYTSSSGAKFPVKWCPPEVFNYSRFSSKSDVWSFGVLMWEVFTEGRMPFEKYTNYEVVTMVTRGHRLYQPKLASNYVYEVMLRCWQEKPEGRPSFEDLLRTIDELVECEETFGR
Just the number please, in nM, no unit attached.

• CC#CC(=O)N1CCC2(CC(n3nc(-c4ccc(OC(C)C)cc4)c(C(N)=O)c3N)C2)C1 (centres unmarked) [Compound B] = 44

Query :: Item: CC#CC(=O)N1CC[C@]2(C1)C[C@H](n1nc(-c3cnn(Cc4cccc(F)c4Cl)c3)c(C(N)=O)c1N)C2 [Example 53] Test system: human recombinant full length TEC (His-tagged) (Homo sapiens (Human), UniProt P42680) Read-out: IC50 Value: ?
Result :: 47

Query :: Item: CC#CC(=O)N1CC[C@]2(C1)C[C@H](n1nc(-c3c(C)nn(Cc4cccc(C(F)(F)F)c4)c3C)c(C(N)=O)c1N)C2 [Example 21] Test system: human recombinant full length TEC (His-tagged) (Homo sapiens (Human), UniProt P42680) Read-out: IC50 Value: ?
Result :: 1100

Query :: Item: CC#CC(=O)N1CC[C@]2(C1)C[C@H](n1nc(-c3cnn(Cc4cccc(C(F)(F)F)c4C)c3)c(C(N)=O)c1N)C2 [Example 6] Test system: human recombinant full length TEC (His-tagged) (Homo sapiens (Human), UniProt P42680) Read-out: IC50 Value: ?
Result :: 65

Query :: Item: CC#CC(=O)N1CC[C@]2(C1)C[C@H](n1nc(-c3cnn(Cc4cccc(F)c4)c3)c(C(N)=O)c1N)C2 [Example 28] Test system: human recombinant full length TEC (His-tagged) (Homo sapiens (Human), UniProt P42680) Read-out: IC50 Value: ?
Result :: 39

Query :: Item: CC#CC(=O)N1CC[C@]2(C1)C[C@H](n1nc(-c3cnn(Cc4ccccc4C(F)(F)F)c3)c(C(N)=O)c1N)C2 [Example 12] Test system: human recombinant full length TEC (His-tagged) (Homo sapiens (Human), UniProt P42680) Read-out: IC50 Value: ?
Result :: 92

Query :: Item: CC#CC(=O)N1CC[C@]2(C1)C[C@H](n1nc(-c3cnn(Cc4cccc(C5CC5)c4)c3)c(C(N)=O)c1N)C2 [Example 51] Test system: human recombinant full length TEC (His-tagged) (Homo sapiens (Human), UniProt P42680) Read-out: IC50 Value: ?
Result :: 18

Query :: Item: CC#CC(=O)N1CC[C@]2(C1)C[C@H](n1nc(-c3ccn(Cc4cccc(C(F)(F)F)c4)n3)c(C(N)=O)c1N)C2 [Example 25] Test system: human recombinant full length TEC (His-tagged) (Homo sapiens (Human), UniProt P42680) Read-out: IC50 Value: ?
Result :: 160

Query :: Item: CC#CC(=O)N1CC2(CC(n3nc(-c4cnn(Cc5cccc(C(F)(F)F)c5)c4)c(C(N)=O)c3N)C2)C1 [Example 47] Test system: human recombinant full length TEC (His-tagged) (Homo sapiens (Human), UniProt P42680) Read-out: IC50 Value: ?
Result :: 34

Query :: Item: CC#CC(=O)N1CC[C@]2(C1)C[C@H](n1nc(-c3cnn(Cc4cccc(C(F)(F)F)c4F)c3)c(C(N)=O)c1N)C2 [Example 33] Test system: human recombinant full length TEC (His-tagged) (Homo sapiens (Human), UniProt P42680) Read-out: IC50 Value: ?
Result :: 48

Query :: Item: CC#CC(=O)N1CC[C@]2(C1)C[C@H](n1nc(-c3cnn(Cc4ccccc4Cl)c3)c(C(N)=O)c1N)C2 [Example 54] Test system: human recombinant full length TEC (His-tagged) (Homo sapiens (Human), UniProt P42680) Read-out: IC50 Value: ?
Result :: 35

Query :: Item: CC#CC(=O)N1CC[C@]2(C1)C[C@H](n1nc(-c3cn(Cc4cccc(C)c4)nc3C)c(C(N)=O)c1N)C2 [Example 52] Test system: human recombinant full length TEC (His-tagged) (Homo sapiens (Human), UniProt P42680) Read-out: IC50 Value: ?
Result :: 100

Query :: Item: CC#CC(=O)N1CC[C@]2(C1)C[C@H](n1nc(-c3cnn(Cc4ccccc4C)c3)c(C(N)=O)c1N)C2 [Example 16] Test system: human recombinant full length TEC (His-tagged) (Homo sapiens (Human), UniProt P42680) Read-out: IC50 Value: ?
Result :: 220

Query :: Item: CC#CC(=O)N1CC[C@]2(C1)C[C@H](n1nc(-c3cnn(Cc4cccc(C(F)(F)F)n4)c3)c(C(N)=O)c1N)C2 [Example 14] Test system: human recombinant full length TEC (His-tagged) (Homo sapiens (Human), UniProt P42680) Read-out: IC50 Value: ?
Result :: 92
